# Experimental System: T1, IL-2 receptor βγ complex on pan T cells (human, UniProt P14784 27-551; P31785 23-369)
# T1 sequence (looked up) 1: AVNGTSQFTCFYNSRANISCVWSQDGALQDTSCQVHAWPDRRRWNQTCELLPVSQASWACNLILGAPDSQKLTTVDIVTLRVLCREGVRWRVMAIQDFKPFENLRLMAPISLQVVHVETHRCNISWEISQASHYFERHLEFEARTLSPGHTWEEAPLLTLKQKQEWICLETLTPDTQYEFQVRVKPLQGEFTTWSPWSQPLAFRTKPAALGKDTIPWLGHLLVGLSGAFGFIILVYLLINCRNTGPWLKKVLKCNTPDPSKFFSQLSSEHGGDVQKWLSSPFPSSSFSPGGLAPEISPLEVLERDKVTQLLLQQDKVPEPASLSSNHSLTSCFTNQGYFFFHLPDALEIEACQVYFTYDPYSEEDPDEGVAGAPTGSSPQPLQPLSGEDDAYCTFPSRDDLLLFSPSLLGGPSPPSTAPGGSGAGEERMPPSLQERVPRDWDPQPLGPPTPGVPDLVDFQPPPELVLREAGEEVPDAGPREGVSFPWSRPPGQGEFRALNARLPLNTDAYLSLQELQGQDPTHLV
# T1 sequence (looked up) 2: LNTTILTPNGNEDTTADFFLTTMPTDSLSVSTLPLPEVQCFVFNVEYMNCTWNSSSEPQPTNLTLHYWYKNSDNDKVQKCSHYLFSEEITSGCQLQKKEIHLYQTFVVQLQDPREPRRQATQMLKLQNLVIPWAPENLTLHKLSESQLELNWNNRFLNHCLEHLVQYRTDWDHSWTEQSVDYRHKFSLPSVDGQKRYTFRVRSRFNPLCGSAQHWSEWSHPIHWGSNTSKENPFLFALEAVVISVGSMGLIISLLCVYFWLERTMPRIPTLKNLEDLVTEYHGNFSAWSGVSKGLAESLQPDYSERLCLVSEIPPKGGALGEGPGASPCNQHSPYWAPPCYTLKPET
# Assay: cell-based or functional assay
Bridges are numbered along the chain shown (N, C = ends). [ ]: non-standard residue; d: D form. Ygp = O-(8x polyethylene glycol-amino)-tyrosine; Yn3 = O-(9x polyethylene glycol-azido)-tyrosine; hSer = N[C@@H](CCO)C(=O)O; Nle = CCCC[C@H](N)C(=O)O
Reported values of Average EC50, pSTAT5 assay in pan T cells, MMP2 cleaved molecule for individual entries
Write down the value, and be sure its unit follows.

Use these answered entries as a reference point.
>>> result("CMP-303, MMP2 cleaved (ligand, ends and bridges not checked; also: cleaved by MMP2 within the cleavable peptide, macrocycle opened, cut site not given here, PEG4 linker) PLGLAGAPTSSSTKKTQLQLEHLLLDLQEILNGINNYKNPKLTR[Nle]L[hSer][Yn3]KF[Ygp][Nle]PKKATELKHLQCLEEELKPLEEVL[hSer]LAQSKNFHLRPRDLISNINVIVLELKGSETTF[hSer]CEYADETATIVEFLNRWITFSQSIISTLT")
"4.4 nM"
>>> result("CMP-166, MMP2 cleaved (ligand, not fully specified; as CMP-166 but cleavable peptide cut by MMP2 (macrocycle opened); cut site not given) APTSSSTKKTQLQLEHLLLDLQKILNGINNYKNPKLTRXLXYKFYXPKKATELKHLQCLEEELKPLEEVLXLAQSKNFHLRPRDLISNINVIVLELKGSETTFXCEYADETATIVEFLNRWITFSQSIISTLT")
"4.36 nM"
>>> result("CMP-168, MMP2 cleaved (ligand, disulfide 58-105 (inferred); not fully specified (residues 9, 23); also: cleaved by MMP2, bridge opened, remnants on Lys9 and Glu23 not defined) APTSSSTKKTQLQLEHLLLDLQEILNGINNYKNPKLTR[Nle]L[hSer][Yn3]KF[Ygp][Nle]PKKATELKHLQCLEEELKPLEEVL[hSer]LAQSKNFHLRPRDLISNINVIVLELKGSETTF[hSer]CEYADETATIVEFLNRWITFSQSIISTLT")
"6.3 nM"

Ask: Entry under review: CMP-301, MMP2 cleaved (ligand, ends and bridges not checked; also: cleavable moiety between Glu23 side chain and N-terminus cut by MMP2, macrocycle opened, cut site not given here) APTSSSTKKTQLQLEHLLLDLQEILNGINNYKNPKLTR[Nle]L[hSer][Yn3]KF[Ygp][Nle]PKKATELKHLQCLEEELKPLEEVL[hSer]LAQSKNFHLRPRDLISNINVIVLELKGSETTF[hSer]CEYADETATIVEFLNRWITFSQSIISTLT . Reported Average EC50, pSTAT5 assay in pan T cells, MMP2 cleaved molecule?
Reply: 0.883 nM

Ask: Entry under review: CMP-164, MMP2 cleaved (ligand, not fully specified (residue 23, N-terminus); ends and bridges not checked; also: macrocycle (Lys23 side chain - cleavable peptide - glutaryl - Ala1) cut by MMP2, cut site not given here) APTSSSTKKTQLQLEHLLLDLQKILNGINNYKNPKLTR[Nle]L[hSer][Yn3]KF[Ygp][Nle]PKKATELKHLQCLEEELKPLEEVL[hSer]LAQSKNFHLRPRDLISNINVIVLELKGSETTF[hSer]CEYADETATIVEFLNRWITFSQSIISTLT . Reported Average EC50, pSTAT5 assay in pan T cells, MMP2 cleaved molecule?
Reply: 0.61 nM
